# system-under-test: 6-phosphogluconate dehydrogenase, decarboxylating (Homo sapiens) (UniProt P52209)
# Sequence (P52209 whole entry, looked up): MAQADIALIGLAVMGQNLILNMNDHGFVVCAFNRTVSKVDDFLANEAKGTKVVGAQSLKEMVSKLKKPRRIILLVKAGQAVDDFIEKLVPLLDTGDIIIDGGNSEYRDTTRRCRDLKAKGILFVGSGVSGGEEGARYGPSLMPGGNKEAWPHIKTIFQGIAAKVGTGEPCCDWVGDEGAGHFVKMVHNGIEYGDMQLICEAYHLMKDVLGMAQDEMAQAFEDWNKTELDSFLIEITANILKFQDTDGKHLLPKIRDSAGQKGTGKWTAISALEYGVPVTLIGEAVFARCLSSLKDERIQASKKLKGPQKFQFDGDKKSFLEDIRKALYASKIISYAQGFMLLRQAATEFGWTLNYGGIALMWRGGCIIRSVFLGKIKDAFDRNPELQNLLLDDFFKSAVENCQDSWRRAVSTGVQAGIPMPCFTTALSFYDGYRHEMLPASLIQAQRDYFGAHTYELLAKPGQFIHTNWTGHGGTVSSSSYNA
# experimental-protocol: 6PGD enzyme inhibitors, primary screen, biochemical, human, recombinant enzyme, NADPH absorbance (AID 1159550)
# details: recombinant 6PGD, NADPH absorbance 341 nm; at 10 µM
Active and inactive are the calls of the source.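 How the source made its calls: active means at least 20% inhibition of 6-phosphogluconate dehydrogenase activity; inactive means the rest.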
Classes used: true (active), false (inactive)

| compound | system-under-test | class-assignment |
| --- | --- | --- |
| C=CCSCC=C | 6-phosphogluconate dehydrogenase, decarboxylating (Homo sapiens) (UniProt P52209) | false |
| COc1ccc(C2CC(=O)c3ccc(OC)cc3O2)cc1 (configuration not stated) | 6-phosphogluconate dehydrogenase, decarboxylating (Homo sapiens) (UniProt P52209) | true |
| CCCCC/C=C\C/C=C\C/C=C\C/C=C\CCCC(=O)O | 6-phosphogluconate dehydrogenase, decarboxylating (Homo sapiens) (UniProt P52209) | false |
| CC(C)(C)NCC(O)c1ccc(O)c(CO)c1 (configuration not stated) | 6-phosphogluconate dehydrogenase, decarboxylating (Homo sapiens) (UniProt P52209) | false |
| Cc1ccc(N(CC2=NCCN2)c2cccc(O)c2)cc1 | 6-phosphogluconate dehydrogenase, decarboxylating (Homo sapiens) (UniProt P52209) | false |
| CC1=CC(=O)C2C(C)(C)CCCC2(C)C1(O)CCc1ccoc1 (configuration not stated) | 6-phosphogluconate dehydrogenase, decarboxylating (Homo sapiens) (UniProt P52209) | false |
| Cc1cc(O)c(C)c(O)c1C(=O)O | 6-phosphogluconate dehydrogenase, decarboxylating (Homo sapiens) (UniProt P52209) | false |
| COc1c(C)c2c(c(O)c1C/C=C(\C)CCC(=O)O)C(=O)OC2 | 6-phosphogluconate dehydrogenase, decarboxylating (Homo sapiens) (UniProt P52209) | false |
| C[C@H](N)CO | 6-phosphogluconate dehydrogenase, decarboxylating (Homo sapiens) (UniProt P52209) | false |
| C[C@H]1[C@H](C)CC[C@]2(C(=O)O)CC[C@]3(C)C(=CC[C@@H]4[C@@]5(C)CC[C@H](O)C(C)(C)[C@@H]5CC[C@]43C)[C@H]12 | 6-phosphogluconate dehydrogenase, decarboxylating (Homo sapiens) (UniProt P52209) | false |
| CC1(C)C(=O)[C@H]2C[C@]3(O)C4=CC(=O)O[C@@H](c5ccoc5)[C@@]4(C)CCC3[C@](C)(C2=O)[C@H]1CC(=O)O (some centres not stated) | 6-phosphogluconate dehydrogenase, decarboxylating (Homo sapiens) (UniProt P52209) | false |
| CC(=O)NCCc1c[nH]c2ccc(O)cc12 | 6-phosphogluconate dehydrogenase, decarboxylating (Homo sapiens) (UniProt P52209) | false |
| COC(=O)c1c(OC)cc2c(c1C)Oc1c(Cl)c(O)c(Cl)c(C)c1C(=O)O2 | 6-phosphogluconate dehydrogenase, decarboxylating (Homo sapiens) (UniProt P52209) | false |
| CSCCC(NC=O)C(=O)NC(CC(C)C)C(=O)NC(Cc1ccccc1)C(=O)O (configuration not stated) | 6-phosphogluconate dehydrogenase, decarboxylating (Homo sapiens) (UniProt P52209) | false |
| O=C(O[C@@H]1Cc2c(O)cc(O)cc2O[C@@H]1c1cc(O)c(O)c(O)c1)c1cc(O)c(O)c(O)c1 | 6-phosphogluconate dehydrogenase, decarboxylating (Homo sapiens) (UniProt P52209) | false |
| O=C(O)C1CC([C@@H]2CCCCN2)CN2CCCCC12 (some centres not stated) | 6-phosphogluconate dehydrogenase, decarboxylating (Homo sapiens) (UniProt P52209) | false |
| O=c1[nH]c(=O)n(C2C[C@H](O)[C@@H](CO)O2)cc1C(F)(F)F (some centres not stated) | 6-phosphogluconate dehydrogenase, decarboxylating (Homo sapiens) (UniProt P52209) | false |
| COC(=O)c1c(OC)cc2c(c1C)Oc1c(Cl)c(OC(C)=O)c(Cl)c(C)c1C(=O)O2 | 6-phosphogluconate dehydrogenase, decarboxylating (Homo sapiens) (UniProt P52209) | false |
| COc1cc2c(cc1OC)[C@@H]1C(=O)c3c(O)cc4c(c3O[C@@H]1CO2)C=CC(C)(C)O4 | 6-phosphogluconate dehydrogenase, decarboxylating (Homo sapiens) (UniProt P52209) | false |
| COc1cc(/C=C/C(=O)O)cc(OC)c1OC | 6-phosphogluconate dehydrogenase, decarboxylating (Homo sapiens) (UniProt P52209) | false |
| C[C@H](CCC(=O)O)[C@H]1CC[C@H]2[C@@H]3C[C@H](O)[C@@H]4C[C@H](O)CC[C@]4(C)[C@H]3CC[C@]12C | 6-phosphogluconate dehydrogenase, decarboxylating (Homo sapiens) (UniProt P52209) | false |
| O=C(/C=C/c1ccc(O)cc1)c1ccc(O)cc1O | 6-phosphogluconate dehydrogenase, decarboxylating (Homo sapiens) (UniProt P52209) | false |
